# System: Yap1 mRNA
# test: Antisense inhibition of human Yap1 in A-431 cells by cEt gapmers, single dose (Example 3, RTS36584)
# Type: cell-based
# condition-set: Table 12; A-431 cells, 5,000 cells per well, free uptake, 2,000 nM modified oligonucleotide, approx. 48 hours; RTS36584; normalized to RIBOGREEN; Yap1 mRNA relative to untreated control cells
Strand notation (5' to 3'): a small letter for the sugar, then the base; units joined by * are phosphorothioate-linked, units joined directly phosphodiester-linked; [ ] holds rarer units or linkages, { } end groups; capitals alone tell only the bases. k = constrained ethyl (cEt); [5mC] = 5-methylcytosine; d = 2'-deoxy (DNA)
Recorded measurements of YAP1 (% UTC), one per entry
Report the figure in % UTC without appending any unit label.

Check out these entries, answers already filled in.
Quick note, YAP1 (% UTC) for 958579 (kA*kT*k[5mC]*dT*dT*dA*dA*dT*d[5mC]*dT*dG*dT*dG*kG*k[5mC]*kT; antisense) [Compound 958579] landed at 4

So for 958524 (kG*k[5mC]*kA*d[5mC]*dA*dT*dT*dA*dT*dG*dA*dA*d[5mC]*k[5mC]*kT*kA; antisense) [Compound 958524] , the logged YAP1 (% UTC) turned out to be 13

YAP1 (% UTC) in this record for 958554 (kA*kA*k[5mC]*d[5mC]*dA*dT*dT*dA*dT*dT*dA*d[5mC]*dT*k[5mC]*k[5mC]*kT; antisense) [Compound 958554] : 1

Lab note: 958684 (kG*k[5mC]*kT*dG*dA*dA*dG*dA*d[5mC]*dG*dG*d[5mC]*d[5mC]*k[5mC]*kT*kT; antisense) [Compound 958684] gave YAP1 (% UTC) of 70

Turning now to a further substance:
The recorded YAP1 (% UTC) for 958584 (k[5mC]*k[5mC]*k[5mC]*dT*dA*dA*dG*d[5mC]*dT*dA*dA*dA*dG*k[5mC]*kT*kA; antisense) [Compound 958584] is 74

###

# System: Yap1 mRNA
# test: Antisense inhibition of human Yap1 in A-431 cells by cEt gapmers, single dose (Example 2, RTS4814)
# Type: cell-based
# condition-set: Table 23; Yap1 mRNA as percent of untreated control; 3-10-3 cEt gapmers; single dose
Strand notation (5' to 3'): a small letter for the sugar, then the base; units joined by * are phosphorothioate-linked, units joined directly phosphodiester-linked; [ ] holds rarer units or linkages, { } end groups; capitals alone tell only the bases. k = constrained ethyl (cEt); [5mC] = 5-methylcytosine; d = 2'-deoxy (DNA)
readout-type: YAP1 (% UTC)
Numeric answer plus unit only.

A selection of reference data follows.
The reported Yap1 mRNA YAP1 (% UTC) of 1074953 (antisense kG*kG*kG*dT*dT*dT*dT*dT*dG*dT*d[5mC]*dA*dT*k[5mC]*kA*kG) [Compound 1074953] is 32 % UTC

The reported Yap1 mRNA YAP1 (% UTC) of 1075273 (antisense kA*kA*kA*dT*dT*dA*dT*dG*dG*dT*d[5mC]*dA*dG*kG*k[5mC]*kT) [Compound 1075273] is 18 % UTC

Proceed to the following item.
Field YAP1 (% UTC) (system: Yap1 mRNA) for entry 1076105 (kT*kA*k[5mC]*dG*dA*dA*dA*dT*dA*dG*dT*dA*dA*k[5mC]*kT*kG; antisense) [Compound 1076105] = 13 % UTC
